testTarget: T1, human IL-13 (human, UniProt P35225 35-146, limits assumed)
T1 construct: Biotinylated in the binary complex AlphaScreen; Different commercial lots are kept as one molecule; also called hIL-13; hIL13
testMethodNotes: AlphaScreen; hIL-13:hIL-13Rα1:hIL4Rα ternary complex
assayReadout: pIC50
The quantity pIC50 is defined as the negative base-10 logarithm of the molar concentration.

| binder | assayReadout | val |
| --- | --- | --- |
| F010700031 (VHH, Bivalent anti-IL-13 construct of two VHHs, Pichia pastoris, FLAG3-HIS6-tagged; also called F0107004B06-35GS-F0107004B06; not shown: FLAG3-HIS6 tag) EVQLVESGGGLVQPGGSLRLSCAASGFTFNNYAMKWVRQAPGKGLEWVSSITTGGGSTDYADSVKGRFTISRDNRKNTLYLQMNSLKPEDTAVYYCANVPFGYYSEHFSGLSFDYRGQGTLVTVSSGGGGSGGGGSGGGGSGGGGSGGGGSGGGGSGGGGSEVQLVESGGGLVQPGGSLRLSCAASGFTFNNYAMKWVRQAPGKGLEWVSSITTGGGSTDYADSVKGRFTISRDNRKNTLYLQMNSLKPEDTAVYYCANVPFGYYSEHFSGLSFDYRGQGTLVTVSS | pIC50 | 9.18 |
| F010700029 (bispecific antibody, Biparatopic anti-IL-13 construct of two VHHs, Pichia pastoris, FLAG3-HIS6-tagged; also called F0107004B02-35GS-F0107004B06; not shown: FLAG3-HIS6 tag) EVQLVESGGGLVQAGGSLRLSCAASGRTFSSYRMGWFRQAPGKEREFVAALSGDGYSTYTANSVNSRFTISRDNAKNTVYLQMNSLKPEDTAIYYCAAKLQYVSGWSYDYPYWGQGTLVTVSSGGGGSGGGGSGGGGSGGGGSGGGGSGGGGSGGGGSEVQLVESGGGLVQPGGSLRLSCAASGFTFNNYAMKWVRQAPGKGLEWVSSITTGGGSTDYADSVKGRFTISRDNRKNTLYLQMNSLKPEDTAVYYCANVPFGYYSEHFSGLSFDYRGQGTLVTVSS | pIC50 | 8.52 |
| F010700003 (bispecific antibody, Biparatopic anti-IL-13 construct of two VHHs, expressed in Pichia pastoris as FLAG3-HIS6-tagged protein; also called F0107004B06-35GS-F0107004B02; not shown: FLAG3-HIS6 tag) EVQLVESGGGLVQPGGSLRLSCAASGFTFNNYAMKWVRQAPGKGLEWVSSITTGGGSTDYADSVKGRFTISRDNRKNTLYLQMNSLKPEDTAVYYCANVPFGYYSEHFSGLSFDYRGQGTLVTVSSGGGGSGGGGSGGGGSGGGGSGGGGSGGGGSGGGGSEVQLVESGGGLVQAGGSLRLSCAASGRTFSSYRMGWFRQAPGKEREFVAALSGDGYSTYTANSVNSRFTISRDNAKNTVYLQMNSLKPEDTAIYYCAAKLQYVSGWSYDYPYWGQGTLVTVSS | pIC50 | 8.47 |

Then this binder:
// returns reported pIC50 for input F010700014 (VHH, Bivalent anti-IL-13 construct of two VHHs, Pichia pastoris, FLAG3-HIS6-tagged; also called F0107004B02-35GS-F0107004B02; not shown: FLAG3-HIS6 tag) EVQLVESGGGLVQAGGSLRLSCAASGRTFSSYRMGWFRQAPGKEREFVAALSGDGYSTYTANSVNSRFTISRDNAKNTVYLQMNSLKPEDTAIYYCAAKLQYVSGWSYDYPYWGQGTLVTVSSGGGGSGGGGSGGGGSGGGGSGGGGSGGGGSGGGGSEVQLVESGGGLVQAGGSLRLSCAASGRTFSSYRMGWFRQAPGKEREFVAALSGDGYSTYTANSVNSRFTISRDNAKNTVYLQMNSLKPEDTAIYYCAAKLQYVSGWSYDYPYWGQGTLVTVSS 8.32
